assay: Binding affinity to microsomal protein in Sprague-Dawley rat liver microsomes after 60 mins in presence of NADPH by HPLC analysis; assay type: ADME; settings: read-out: PB (converted)
outcome-measure: fraction unbound at 1 h

Task: Which measured fraction unbound at 1 h value corresponds to "O=C1CCc2ccc(OCCCCN3CCCN(c4ccc(O)c5[nH]c(=O)ccc45)CC3)cc2N1" ?
Result: 0.73

---

target: D(2) dopamine receptor (Homo sapiens); type: cell-based, HEK-293T
Description: Partial agonist activity at human D2SR expressed in HEK293T cells co-expressing (EA)beta-arrestin2 assessed as induction of beta-arrestin2 recruitment after 5 hrs by chemiluminescence assay
Assign pEC50 to each entry below.
One number for each entry, as −log10 of the molar value.

O=C1CCc2ccc(OCCCCN3CCCN(c4ccc(O)c5[nH]c(=O)ccc45)CC3)cc2N1 ... 6.72

Parameters: items (list). Returns: pEC50 for each item.
1. O=C1COc2c(N3CCN(CCCCOc4ccn5nccc5c4)CC3)ccc(O)c2N1
2. CCCN(CCC)CCc1cccc2c1CC(=O)N2 [ROPINIROLE]
3. O=C1CCc2ccc(OCCCCN3CCCN(c4ccc(O)c5oc(=O)ccc45)CC3)cc2N1

Result:
1. 7.21
2. 7.05
3. 6.66

---

target: D(2) dopamine receptor (Homo sapiens); assay: biochemical; format: cell-based
Description: Displacement of [3H]spiperone from human D2SR expressed in CHO cell membranes by radioligand binding assay
In plain terms, low Ki, meaning strictly below 40 nM, gives MET, and everything else gives NOT MET.

# count of solved cases: 8
Oc1ccc(N2CCN(CCCCOc3ccn4nccc4c3)CC2)c2c1OCCO2 ... NOT MET
Oc1ccc(N2CCN(CCCCOc3ccn4nccc4c3)CC2)c2cccnc12 ... MET
O=C1CCc2ccc(OCCCCN3CCCN(c4ccc(O)c5[nH]c(=O)ccc45)CC3)cc2N1 ... MET
O=C1COc2c(N3CCN(CCCCOc4ccn5nccc5c4)CC3)ccc(O)c2N1 ... MET
O=C1CCc2ccc(OCCCCN3CCN(c4ccc(O)c5c4OCC(=O)N5)CC3)cc2N1 ... MET
O=C1CCc2ccc(OCCCCN3CCCN(c4ccc(O)c5oc(=O)ccc45)CC3)cc2N1 ... MET
CCCCn1cc(CCCOc2ccc(C(=O)NCCCN3CCCN(c4ccc(O)c5[nH]c(=O)ccc45)CC3)cc2OC)nn1 ... NOT MET
O=C1CCc2ccc(OCCCCN3CCN(c4ccc(O)c5c4OCCO5)CC3)cc2N1 ... MET

Task: Consider "O=c1ccc2c(N3CCCN(CCCCOc4ccn5nccc5c4)CC3)ccc(O)c2[nH]1" . Does its Ki lie strictly below 40 nM?
Result: NOT MET

---

I'd be grateful if you could share measured pKi for these entries.
molecular target: D(2) dopamine receptor (Homo sapiens, UniProt P14416); test: biochemical; type: cell-based
Sequence (P14416 whole entry): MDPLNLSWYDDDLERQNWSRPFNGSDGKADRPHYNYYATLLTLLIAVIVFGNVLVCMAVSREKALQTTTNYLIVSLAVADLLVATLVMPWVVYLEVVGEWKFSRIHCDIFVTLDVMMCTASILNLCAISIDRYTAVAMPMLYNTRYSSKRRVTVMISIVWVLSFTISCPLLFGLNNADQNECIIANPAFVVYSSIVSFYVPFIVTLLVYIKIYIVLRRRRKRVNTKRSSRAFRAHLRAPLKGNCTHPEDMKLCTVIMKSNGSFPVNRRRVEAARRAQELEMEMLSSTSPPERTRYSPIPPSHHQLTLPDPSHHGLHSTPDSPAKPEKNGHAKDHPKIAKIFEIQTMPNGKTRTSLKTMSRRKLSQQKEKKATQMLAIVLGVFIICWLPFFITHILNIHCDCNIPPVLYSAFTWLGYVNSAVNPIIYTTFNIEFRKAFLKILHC
Description: Displacement of [3H]spiperone from human D2LR expressed in CHO cell membranes by radioligand binding assay
One number for each entry, as −log10 of the molar value.

Below, 2 compounds whose answers are already recorded.
CCCCn1cc(CCCOc2ccc(C(=O)NCCCN3CCCN(c4ccc(O)c5[nH]c(=O)ccc45)CC3)cc2OC)nn1 ... 6.46
O=C1CCc2ccc(OCCCCN3CCN(c4ccc(O)c5oc(=O)ccc45)CC3)cc2N1 ... 8.32

Kindly consider the entry below.
Task: Suppose we examine the compound "O=C1CCc2ccc(OCCCCN3CCCN(c4ccc(O)c5c4OCC(=O)N5)CC3)cc2N1" ; what pKi value has been reported?
Result: 8.80
